Reference source: patent US20080064718A1

Hi there, I'd appreciate the recorded IC50 for every entry that follows.
Molecular target: recombinant human c-Met/HGF receptor (Homo sapiens, UniProt P08581)
Sequence (P08581 1078-1337): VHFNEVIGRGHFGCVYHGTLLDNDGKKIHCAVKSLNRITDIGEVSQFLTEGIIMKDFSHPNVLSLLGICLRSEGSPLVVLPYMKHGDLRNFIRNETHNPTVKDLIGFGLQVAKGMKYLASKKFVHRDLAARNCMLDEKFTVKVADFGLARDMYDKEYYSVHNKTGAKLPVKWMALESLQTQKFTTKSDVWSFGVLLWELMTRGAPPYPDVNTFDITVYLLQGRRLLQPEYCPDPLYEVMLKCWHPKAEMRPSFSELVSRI
Experiment: In vitro receptor tyrosine kinase assay, c-Met/HGF receptor (DELFIA)

Provide IC50 values for the following items, in order.
1. COCCN(C)Cc1ccc(-c2cc3nccc(Oc4ccc(NC(=O)NNc5ccccc5)cc4F)c3s2)cc1
2. CCOC(=O)c1ccc(-c2cc3nccc(Oc4ccc(NC(=O)c5cnn(-c6ccccc6)c5C(F)(F)F)cc4F)c3s2)cc1
3. Cn1cnc(-c2cc3nccc(Oc4ccc(NC(=O)c5cnn(C)c5C(F)(F)F)cc4F)c3s2)c1
4. CS(=O)(=O)CCNCc1ccc(-c2cc3nccc(Oc4ccc(NC(=O)N5CCN(c6ccccc6)C5=O)cc4F)c3s2)cc1
5. CN(C)C(=O)c1ccc(-c2cc3nccc(Oc4ccc(NC(=O)N5CCN(c6ccccc6)C5=O)cc4F)c3s2)cc1

Data returned:
1. 250 to 500 nM
2. > 1000 nM
3. < 250 nM
4. < 250 nM
5. < 250 nM
